Target: UniProtKB P51531
Sequence (P51531 whole entry): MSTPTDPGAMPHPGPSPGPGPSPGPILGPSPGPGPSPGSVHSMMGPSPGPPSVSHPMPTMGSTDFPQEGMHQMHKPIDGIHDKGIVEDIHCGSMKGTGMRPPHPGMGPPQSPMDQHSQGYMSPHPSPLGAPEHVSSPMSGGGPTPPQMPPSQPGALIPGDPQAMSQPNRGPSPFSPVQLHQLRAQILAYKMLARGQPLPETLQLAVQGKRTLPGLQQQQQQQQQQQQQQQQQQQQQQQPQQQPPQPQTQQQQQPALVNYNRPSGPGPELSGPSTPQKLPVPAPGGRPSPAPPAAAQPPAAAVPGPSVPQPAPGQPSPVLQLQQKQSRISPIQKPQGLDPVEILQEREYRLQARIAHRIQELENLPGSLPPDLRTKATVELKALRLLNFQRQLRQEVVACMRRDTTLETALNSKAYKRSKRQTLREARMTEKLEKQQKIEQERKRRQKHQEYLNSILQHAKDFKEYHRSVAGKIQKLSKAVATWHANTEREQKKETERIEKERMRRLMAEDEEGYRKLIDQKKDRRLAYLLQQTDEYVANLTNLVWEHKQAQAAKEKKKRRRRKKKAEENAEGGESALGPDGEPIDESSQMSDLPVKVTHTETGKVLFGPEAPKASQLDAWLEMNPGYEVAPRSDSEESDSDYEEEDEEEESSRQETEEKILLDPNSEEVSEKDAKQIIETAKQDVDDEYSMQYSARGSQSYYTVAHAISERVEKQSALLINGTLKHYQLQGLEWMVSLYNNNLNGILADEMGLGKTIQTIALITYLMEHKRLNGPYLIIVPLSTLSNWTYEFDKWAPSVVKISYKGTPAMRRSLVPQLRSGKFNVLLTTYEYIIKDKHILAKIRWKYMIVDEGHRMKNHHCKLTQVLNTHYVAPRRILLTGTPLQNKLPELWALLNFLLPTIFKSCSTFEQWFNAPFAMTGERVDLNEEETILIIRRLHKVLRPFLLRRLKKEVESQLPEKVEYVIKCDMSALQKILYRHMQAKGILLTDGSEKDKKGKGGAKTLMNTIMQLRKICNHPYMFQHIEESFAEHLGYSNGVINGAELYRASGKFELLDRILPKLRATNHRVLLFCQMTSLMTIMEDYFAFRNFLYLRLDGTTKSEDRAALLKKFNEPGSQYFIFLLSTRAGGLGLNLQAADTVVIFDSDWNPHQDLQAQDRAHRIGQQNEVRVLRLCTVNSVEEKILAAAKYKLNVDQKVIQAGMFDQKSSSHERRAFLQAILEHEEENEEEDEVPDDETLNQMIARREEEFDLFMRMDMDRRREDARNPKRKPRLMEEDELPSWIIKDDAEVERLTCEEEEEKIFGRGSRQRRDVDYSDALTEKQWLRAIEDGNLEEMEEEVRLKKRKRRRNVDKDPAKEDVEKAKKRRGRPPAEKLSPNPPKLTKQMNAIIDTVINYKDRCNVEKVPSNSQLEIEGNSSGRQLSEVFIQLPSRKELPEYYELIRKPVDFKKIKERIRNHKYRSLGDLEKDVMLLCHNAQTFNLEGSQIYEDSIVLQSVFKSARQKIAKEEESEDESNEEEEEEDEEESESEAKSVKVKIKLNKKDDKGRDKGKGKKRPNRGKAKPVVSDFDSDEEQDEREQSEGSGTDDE
Assay: SMARCA2 capillary electrophoresis protein assay in RKO cells
Type: cell-based
Parameters: endogenous in cells; host or cells: RKO, NCI-H1568, A549, HCT116, LU99, HCC-364, HCT-15, HCC4006, SK-N-AS
Settings: RKO (18 h); mean ± SD
Measure: DC50 (nM)
Supply the numeric figure in nM, leaving out any unit text.

Param item = Cc1ncsc1-c1ccc([C@H](CCCCN2CCC(c3ccc4c(c3)n(C3CCCC3)c3nc(=O)c5c(Br)cccc5n43)CC2)NC(=O)[C@@H]2C[C@@H](O)CN2C(=O)[C@@H](NC(=O)C2(F)CC2)C(C)(C)C)cc1 [compound 25] ; retrieve measured DC50.
3

// lookup DC50 for Cc1ncsc1-c1ccc([C@H](COC(C)CN2CCC(c3ccc4c(c3)n(C3CCCC3)c3nc(=O)c5c(Br)cccc5n43)CC2)NC(=O)[C@@H]2C[C@@H](O)CN2C(=O)[C@@H](NC(=O)C2(F)CC2)C(C)(C)C)cc1 (some centres unmarked) [compound 9]
5

Field request: DC50 | item: Cc1ncsc1-c1ccc([C@H](COC(C)CN2CCC(c3ccc4c(c3)n(C3CCCC3)c3nc(=O)c5c(Br)cccc5n43)CC2)NC(=O)[C@@H]2C[C@@H](O)CN2C(=O)[C@@H](NC(=O)C2(N(C)C)CC2)C(C)(C)C)cc1 (some centres unmarked) [compound 10]
3
